B1: tRNA (parent)
chain: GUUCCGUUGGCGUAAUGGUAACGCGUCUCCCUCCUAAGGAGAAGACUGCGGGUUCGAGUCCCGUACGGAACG

variants of: B1; assay: yeast fitness relative to wild type (ratio to wild type); higher = fitter; tRNA-Arg(CCU), competitive growth, 37 C, YPD
Fewer inactive variants are shown than the library holds.
In this section we review reported yeast fitness values for a set of variants.

Below, each entry is followed by its recorded yeast fitness result.
GUCCCGUUGGCGUAAUGGUAUCGCGUCUCCCUCCUAAGGAGAAGACUGCGGGUUCGAGUCCCGUAGGGAACG [U3C A21U C66G] :: ≤ 0.5
GUCCCGUUGGUGUAAUGGUAAAGCGUCUGCCUUCUAAGGAGAAGACUGCGGGUUCGAGUCCCGCACGGACCG [U3C C11U C22A C29G C33U U64C A70C] :: ≤ 0.5

Entry GAUUCGUGGGCGUAAUGGUAACGCGUCUCCAUCCUAAGGAGAACACUGCGGGUUCGAGUCCCGUGCGGAACG [U2A C4U U8G C31A G44C A65G] , yeast fitness reported as ≤ 0.5

Entry GUUCCGUUGGCGUAAUGGUAAGGCGUCUCCCUCCUAAGCAGAUAACCGCGGGUUCGACUCCCGUACGGAACG [C22G G39C A43U G44A U47C G58C] , yeast fitness reported as ≤ 0.5

Entry GUACCGUUGGCGUAAUGGAAACGCGUCUCCCUACUAAGGAGAAGACUGUGGAUUCGAGUCCCGUACGGAACG [U3A U19A C33A C49U G52A] , yeast fitness reported as ≤ 0.5

Entry GUUCCGUUGGCGUAAUGCUAACGCGUCACCCUCCUAAGGAGUAGACUGCGGGUUCGAGUCCCGUACGGAACG [G18C U28A A42U] , yeast fitness reported as ≤ 0.5

Entry GUUCCGUUGGCGUAAUGGUAACGCGCCUCUCUCCUAAGGAGAAGACUGCGGGUUCGAGACCCGUACGGUACG [U26C C30U U59A A69U] , yeast fitness reported as ≤ 0.5

Entry GUUCCGUUGGCGUAAUGGUAACGCGUCUCCCCCCUAAGGAGAAGACUGCGGGUUCGAAUCCCGUACGGAACG [U32C G58A] , yeast fitness reported as 0.798

Entry GUUCCGUUGGCGUAAUGGUAACGCCUCUCCCUCCUAAGGGGAAGACUGCGGGUUCGAGUCGCAUACGGUACG [G25C A40G C61G G63A A69U] , yeast fitness reported as ≤ 0.5
